- TARGET OF ASSAY: T1, PHD1 D343A mutant (human, UniProt P41229-1 318-378, D343A)
- T1 sequence: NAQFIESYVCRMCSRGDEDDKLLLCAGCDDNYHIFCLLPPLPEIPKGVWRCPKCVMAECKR
- PROTOCOL TEXT: NMR; lower limit, from I361
pKd: −log10 of the molar value.
TEST READOUT: pKd

Query ARTKQTARKSTGGKAPRK [H3 (1–18) tail peptide] yields pKd of < 2.84
